So I've got a bunch of compounds here, and I need their IC50 values.
Write it as a number; the unit nM goes unstated.

Request: Short answer please: IC50, FGFR1 (Homo sapiens, UniProt P11362), entry C=C(C(=O)Nc1ccc(-c2c(-c3ccc(Oc4nccc(C)n4)c(F)c3)c3c(N)ncnc3n2C)c(F)c1)C1CC1 [Compound 5]
Response: 550

Request: Short answer please: IC50, FGFR1 (Homo sapiens, UniProt P11362), entry C=C(C(=O)Nc1ccc(-c2c(-c3ccc(Oc4nccc(C)n4)c(F)c3)c3c(N)ncnc3n2C)c(Cl)c1)C1CC1 [Compound 4]
Response: 165

====

So I've got a bunch of compounds here, and I need their AUC0-t values.
ASSAY SUMMARY: Pharmacokinetic study in rats in vivo
EXPERIMENTAL SETUP: male, rat, po; Plasma; SD rats, intragastric administration 5 mg/kg
Write it as a number; the unit ng·h/mL goes unstated.

Request: I would be grateful if you could share the reported AUC0-t for C=C(C(=O)Nc1ccc(-c2c(-c3ccc(Oc4nccc(C)n4)c(F)c3)c3c(N)ncnc3n2C)c(Cl)c1)C1CC1 .
Response: 787

Request: I would be grateful if you could share the reported AUC0-t for C=C(C(=O)Nc1ccc(-c2c(-c3ccc(Oc4nccc(C)n4)c(F)c3)c3c(N)ncnc3n2C)cc1)C1CC1 .
Response: 3190

====

TARGET DESC: FGFR2 N549H (Homo sapiens, UniProt P21802, N549H)
Sequence (P21802 22-821 N549H): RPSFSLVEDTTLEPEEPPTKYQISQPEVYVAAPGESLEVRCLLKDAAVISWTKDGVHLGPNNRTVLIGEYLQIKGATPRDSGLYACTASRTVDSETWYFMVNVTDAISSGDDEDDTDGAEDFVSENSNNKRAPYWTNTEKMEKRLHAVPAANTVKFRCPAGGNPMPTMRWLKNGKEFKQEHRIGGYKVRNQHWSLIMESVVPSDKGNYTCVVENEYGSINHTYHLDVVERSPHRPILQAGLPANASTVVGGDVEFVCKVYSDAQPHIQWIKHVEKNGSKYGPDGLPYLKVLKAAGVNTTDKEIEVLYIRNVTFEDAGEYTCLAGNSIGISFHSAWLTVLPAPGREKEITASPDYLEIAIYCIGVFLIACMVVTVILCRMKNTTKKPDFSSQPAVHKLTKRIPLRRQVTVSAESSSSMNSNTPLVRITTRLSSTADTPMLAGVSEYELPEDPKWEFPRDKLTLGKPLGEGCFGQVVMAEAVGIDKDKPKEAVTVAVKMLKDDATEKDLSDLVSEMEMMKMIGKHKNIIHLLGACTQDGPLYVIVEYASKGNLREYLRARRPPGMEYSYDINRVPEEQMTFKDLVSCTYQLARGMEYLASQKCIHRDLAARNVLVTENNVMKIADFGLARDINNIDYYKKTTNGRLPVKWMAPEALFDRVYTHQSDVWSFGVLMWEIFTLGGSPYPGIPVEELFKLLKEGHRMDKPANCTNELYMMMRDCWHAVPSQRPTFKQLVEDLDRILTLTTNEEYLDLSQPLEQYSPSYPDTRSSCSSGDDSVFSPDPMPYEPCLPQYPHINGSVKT
ASSAY SUMMARY: FGFR2 and FGFR3 mutant enzymology, HTRF method (FGFR2 N549H)
EXPERIMENTAL SETUP: kinase 0.02 nM, substrate 1 µM, ATP 9 µM
ENDPOINT NAME: IC50 (nM)
Write it as a number; the unit nM goes unstated.

Request: Short answer please: IC50, FGFR2 N549H (Homo sapiens, UniProt P21802, N549H), entry C=C(C(=O)Nc1ccc(-c2c(-c3ccc(Oc4nccc(C)n4)c(F)c3)c3c(N)ncnc3n2C)c(Cl)c1)C1CC1 [Compound 4]
Response: 5.2

====

TARGET DESC: FGFR3 K650M (Homo sapiens, UniProt P22607, K650M)
Sequence (P22607 23-806 K650M): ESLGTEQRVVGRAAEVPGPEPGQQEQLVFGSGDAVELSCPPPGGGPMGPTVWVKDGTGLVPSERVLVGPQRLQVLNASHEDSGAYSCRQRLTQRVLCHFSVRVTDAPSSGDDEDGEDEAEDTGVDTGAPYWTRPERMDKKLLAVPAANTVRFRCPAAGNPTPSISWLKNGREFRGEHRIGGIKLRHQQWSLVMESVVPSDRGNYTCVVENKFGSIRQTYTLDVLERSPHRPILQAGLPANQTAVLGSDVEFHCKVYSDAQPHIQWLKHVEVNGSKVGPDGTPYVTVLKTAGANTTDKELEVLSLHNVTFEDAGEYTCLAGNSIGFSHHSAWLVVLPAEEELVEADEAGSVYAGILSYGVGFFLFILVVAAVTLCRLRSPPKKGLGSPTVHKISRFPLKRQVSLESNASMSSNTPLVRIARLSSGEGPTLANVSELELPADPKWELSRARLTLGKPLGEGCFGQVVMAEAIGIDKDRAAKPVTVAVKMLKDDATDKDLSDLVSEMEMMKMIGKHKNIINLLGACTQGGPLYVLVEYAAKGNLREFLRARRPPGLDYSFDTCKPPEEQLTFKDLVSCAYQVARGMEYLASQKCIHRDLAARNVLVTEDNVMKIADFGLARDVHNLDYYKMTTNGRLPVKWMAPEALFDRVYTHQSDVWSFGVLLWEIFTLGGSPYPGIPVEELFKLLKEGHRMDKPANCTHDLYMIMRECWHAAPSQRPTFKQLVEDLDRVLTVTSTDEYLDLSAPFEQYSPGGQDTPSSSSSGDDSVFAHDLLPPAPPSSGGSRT
ASSAY SUMMARY: FGFR2 and FGFR3 mutant enzymology, HTRF method (FGFR3 K650M)
Type: biochemical
EXPERIMENTAL SETUP: kinase 0.10 nM, substrate 1 µM, ATP 12 µM
ENDPOINT NAME: IC50
State the result as a value with its unit after it.

Request: I would be grateful if you could share the reported IC50 for C=C(C(=O)Nc1ccc(-c2c(-c3ccc(Oc4nccc(C)n4)c(F)c3)c3c(N)ncnc3n2C)c(Cl)c1)C1CC1 .
Response: 271 nM

====

TARGET DESC: FGFR3 V555M (Homo sapiens, UniProt P22607, V555M)
Sequence (P22607 23-806 V555M): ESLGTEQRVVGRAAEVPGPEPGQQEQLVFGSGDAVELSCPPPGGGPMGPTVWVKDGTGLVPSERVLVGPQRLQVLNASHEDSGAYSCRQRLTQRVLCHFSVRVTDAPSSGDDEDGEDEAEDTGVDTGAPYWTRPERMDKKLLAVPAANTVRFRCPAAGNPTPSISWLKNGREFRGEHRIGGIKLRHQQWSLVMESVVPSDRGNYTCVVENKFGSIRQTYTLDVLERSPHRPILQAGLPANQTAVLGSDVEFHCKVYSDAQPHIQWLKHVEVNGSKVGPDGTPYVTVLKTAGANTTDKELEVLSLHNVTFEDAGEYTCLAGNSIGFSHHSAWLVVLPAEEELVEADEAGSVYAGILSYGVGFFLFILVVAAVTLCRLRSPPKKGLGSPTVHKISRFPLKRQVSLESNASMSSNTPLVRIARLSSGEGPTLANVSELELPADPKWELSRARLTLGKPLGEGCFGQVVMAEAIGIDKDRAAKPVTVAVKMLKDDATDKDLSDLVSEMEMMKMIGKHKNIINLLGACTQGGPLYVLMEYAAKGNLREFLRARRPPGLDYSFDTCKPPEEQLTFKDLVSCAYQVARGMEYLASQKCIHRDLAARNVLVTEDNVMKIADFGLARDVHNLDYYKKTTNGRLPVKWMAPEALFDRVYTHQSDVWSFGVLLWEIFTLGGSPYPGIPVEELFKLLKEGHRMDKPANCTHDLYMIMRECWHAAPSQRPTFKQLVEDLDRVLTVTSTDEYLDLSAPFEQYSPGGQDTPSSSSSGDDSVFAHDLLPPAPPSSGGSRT
ASSAY SUMMARY: FGFR2 and FGFR3 mutant enzymology, HTRF method (FGFR3 V555M)
EXPERIMENTAL SETUP: kinase 0.55 nM, substrate 1 µM, ATP 20 µM
Description: The inhibitory effects of the compounds on the enzymatic activities of FGFR2 and FGFR3 mutants by using HTRF method (PerkinElmer, 62TK0PEJ). 2× Enzyme and 2× substrate /ATP mixed solutions were prepared using a buffer solution. The compound stock solution was diluted to 100× working concentration using DMSO. […] Fluorescence signals at 620 nm (Cryptate) and 665 nm (XL665) were read by a multifunctional microplate reader. According to the test results, the inhibition rate was calculated. […]
ENDPOINT NAME: pIC50
pIC50 (log units): -log10 of the concentration in mol/L.

Request: I would be grateful if you could share the reported pIC50 for C=C(C(=O)Nc1ccc(-c2c(-c3ccc(Oc4nccc(C)n4)c(F)c3)c3c(N)ncnc3n2C)c(Cl)c1)C1CC1 [Compound 4] .
Response: 6.92
